# System: KM12 colon
# procedure_summary: NCI tumour cell line growth inhibition, 48 h; in the data active = GI50 below about 0.43 µM; inactive = the rest
Outcomes you can answer with include only these: YES = active, NO = inactive

Example entries and their recorded answers appear below.
COc1ccc(-c2n/c(=C\c3c(O)[nH]c4ccccc34)cc3c2=Nc2ccccc2-3)cc1 = NO
C/C(=N/O)c1ccc(Nc2cc(-n3ccnc3)c3ccccc3n2)cc1 = NO
Cc1ccc(-c2n[nH]c(=O)c3noc(-c4ccc(C)cc4)c23)cc1 = NO
NC(=O)c1ccc(N(C(N)=O)c2c(F)cccc2F)nc1-c1ccc(F)cc1F = NO
O=C(c1ccc2ccccc2c1)c1c(C(F)(F)F)n([O-])c2ccc(F)cc2[n+]1=O = NO

Q: Please state the recorded outcome for this molecule: Nc1c(C(=O)Nc2cccc3ccccc23)sc2nc3c(cc12)C(=O)CCC3
A: YES

Q: Please state the recorded outcome for this molecule: COc1ccc2c(c1)/C(=N/OC(C)=O)c1c-2cnc2ccccc12
A: NO

Q: Please state the recorded outcome for this molecule: O=C1/C(=C\c2ccccc2)C2OCC=C3CN4CCC56c7ccccc7N1C5C2C3CC46 (stereo not given)
A: NO

Q: Please state the recorded outcome for this molecule: COc1cccc(NC2=C(Cl)C(=O)N(Cc3ccc(Cl)cc3)C2=O)c1
A: NO

Q: Please state the recorded outcome for this molecule: Cc1c(Cl)cccc1NC(=O)c1sc2nc3c(cc2c1N)CCCC3
A: NO
